# assay: Mouse pharmacokinetic studies
# Format: in vivo, CD1 mice
# recorded conditions: male, CD1, mouse, plasma, iv, 10 mg/kg
measure name: clearance (mL/min/kg)
Please give a number only; it is taken to be in mL/min/kg.

Note clearance for the compound shown: Cc1ccc(C#Cc2cc(-c3nn(-c4nc(C(=O)O)cs4)c(CCC4CC4)c3Cc3ccc(S(N)(=O)=O)c(F)c3)ccc2F)s1 74.7

---

# Test system: MiaPaCa-2 cells
# assay: Cellular lactate production assay in MiaPaCa-2 cells
# Assay type: cell-based
# recorded conditions: Homo sapiens, MIA PaCa-2, 0.5 h, read-out: MiaPaCa-2 cells lactate inh. IC50
I'd appreciate it if you marked entries met when IC50 is lower than 1000 nM and not met when it is not.

CC1(C#Cc2cc(-c3nn(-c4nc(C(=O)O)cs4)c(CC4CC4)c3Cc3ccc(S(N)(=O)=O)c(F)c3)ccc2F)COC1; met
Cc1ccc(C#Cc2cccc(-c3nn(-c4nc(C(=O)O)cs4)c(C(C)(C)C4CC4)c3Cc3ccc(S(N)(=O)=O)c(F)c3)c2)s1; not met
NS(=O)(=O)c1ccc(Cc2c(-c3ccc(F)c(C#CC4(F)COC4)c3)nn(-c3nc(C(=O)O)cs3)c2CC2CC2)cc1F; not met

Does the reported IC50 of the following molecule sit strictly below 1000 nM? Cc1ccc(C#Cc2cccc(-c3nn(-c4nc(C(=O)O)cs4)c(C(C4CC4)C4CC4)c3Cc3ccc(S(N)(=O)=O)c(F)c3)c2)s1 not met

Does the reported IC50 of the following molecule sit strictly below 1000 nM? NS(=O)(=O)c1ccc(Cc2c(-c3ccc(F)c(C#CC4(O)CCOC4)c3)nn(-c3nc(C(=O)O)cs3)c2CC2CC2)cc1F (stereo not drawn) not met

Does the reported IC50 of the following molecule sit strictly below 1000 nM? NS(=O)(=O)c1ccc(Cc2c(-c3ccc(F)c(C#CC4(F)CCCC4)c3)nn(-c3nc(C(=O)O)cs3)c2CC2CC2)cc1F met

---

# Test system: A673 cells
# assay: Cytotoxicity assay in A673 cells
# Format: cell-based, human
# recorded conditions: Homo sapiens, A673, 48 h, read-out: A673 cells Cytotox. IC50
measure name: IC50
// unit must come after the numeric part

Worked cases, IC50 given:
Cc1ccc(C#Cc2cccc(-c3nn(-c4nc(C(=O)O)cs4)c(CC4(C)CC4)c3Cc3ccc(S(N)(=O)=O)c(F)c3)c2)s1; 590 nM
Cc1ccc(C#Cc2cccc(-c3nn(-c4nc(C(=O)O)cs4)c(C4CC45CC5)c3Cc3ccc(S(N)(=O)=O)c(F)c3)c2)s1 (stereo not shown); 526 nM
Cc1ccc(C#Cc2cccc(-c3nn(-c4nc(C(=O)O)cs4)c(C4CC4C4CC4)c3Cc3ccc(S(N)(=O)=O)c(F)c3)c2)s1 (stereo not shown); 4690 nM

Now take the following compound into account.
Using A673 cells as the test system, report measured IC50 of NS(=O)(=O)c1ccc(Cc2c(-c3ccc(F)c(C#CC4(F)COC4)c3)nn(-c3nc(C(=O)O)cs3)c2CC2CC2)cc1F . 2650 nM

---

# System: MiaPaCa-2 cells
# assay: Cellular lactate production assay in MiaPaCa-2 cells
# Assay type: cell-based
# recorded conditions: Homo sapiens, MIA PaCa-2, 0.5 h, read-out: MiaPaCa-2 cells lactate inh. IC50
Items are presented alongside their recorded pIC50.
Formally, pIC50 is defined as -log10 of the concentration c, with c in mol/L.

Note pIC50 for the molecule shown: NS(=O)(=O)c1ccc(Cc2c(-c3ccc(F)c(C#CC4(O)COC4)c3)nn(-c3nc(C(=O)O)cs3)c2CC2CC2)cc1F [Compound 28] 5.31

Note pIC50 for the molecule shown: Cc1ccc(C#Cc2cccc(-c3nn(-c4nc(C(=O)O)cs4)c(CC4(C)CC4)c3Cc3ccc(S(N)(=O)=O)c(F)c3)c2)s1 [Compound 86] 6.39

Note pIC50 for the molecule shown: Cc1ccc(C#Cc2cccc(-c3nn(-c4nc(C(=O)O)cs4)c(C4CC4C4CC4)c3Cc3ccc(S(N)(=O)=O)c(F)c3)c2)s1 (stereo not drawn) [Compound 88] 6.29

Note pIC50 for the molecule shown: Cc1ccc(C#Cc2cccc(-c3nn(-c4nc(C(=O)O)cs4)c(C4CC45CC5)c3Cc3ccc(S(N)(=O)=O)c(F)c3)c2)s1 (stereo not drawn) [Compound 87] 6.34

Note pIC50 for the molecule shown: Cc1ccc(C#Cc2cccc(-c3nn(-c4nc(C(=O)O)cs4)c(C(C)C4CC4)c3Cc3ccc(S(N)(=O)=O)c(F)c3)c2)s1 (stereo not drawn) [Compound 84] 5.99

Note pIC50 for the molecule shown: NS(=O)(=O)c1ccc(Cc2c(-c3ccc(F)c(C#CC4(O)CCCC4)c3)nn(-c3nc(C(=O)O)cs3)c2CC2CC2)cc1F [Compound 25] 5.83

Note pIC50 for the molecule shown: C=C(c1cc(-c2nn(-c3nc(C(=O)O)cs3)c(CC3CC3)c2Cc2ccc(S(N)(=O)=O)c(F)c2)ccc1F)C(F)(F)F [Compound 73] 6.01

Note pIC50 for the molecule shown: NS(=O)(=O)c1ccc(Cc2c(-c3ccc(F)c(C#CC4(F)CCOC4)c3)nn(-c3nc(C(=O)O)cs3)c2CC2CC2)cc1F (stereo not drawn) [Compound 30] 6.06

Note pIC50 for the molecule shown: Cc1cc(C#Cc2cccc(-c3nn(-c4nc(C(=O)O)cs4)c(CCC4CC4)c3Cc3ccc(S(N)(=O)=O)c(F)c3)c2)cs1 [Compound 77] 6.60
